src = PubChem BioAssay (NCI)

Test system: U251 CNS
Experiment: NCI-60 one-dose screen, 48 h
Conditions: 10 µM unless noted
Compounds without any hit were thinned out: in the full panel of roughly 83,000, 20% have a hit. Calls of active or inactive are those of the source. How the source made its calls: active means growth percent below 10; inactive means the rest.
Your reply should match one of these outcome classes. class 1 for active, class 0 for inactive

Would you please look over these solved cases?
CCCNc1nc2ccccc2c2c1S(=O)(=O)c1ccc(Cl)cc1C2=O    class 1
N#Cc1nc(-c2ccccc2)oc1S(=O)(=O)N1CCN(c2ccccc2)CC1    class 0
COC1/C=C/OC2(C)Oc3c(C)c(O)c4c(O)c(c(/C=N/Nc5ccc([N+](=O)[O-])cc5[N+](=O)[O-])c(O)c4c3C2=O)NC(=O)C(C)=C/C=C/C(C)C(O)C(C)C(O)C(C)C(OC(C)=O)C1C (centres undefined)    class 1

QUERY: Test call, this compound: `O=C1c2c(c3c4ccccc4[nH]c3c3ccc4ccccc4c23)C(=O)N1CCN1CCOCC1`
RESULT: class 0

###

Tested on: KM12 colon
Experiment: NCI-60 one-dose screen, 48 h (100 = growth as untreated, 0 = no growth, -100 = all killed)
Details: 10 µM unless noted
Procedure: Growth inhibition of the KM12 human tumor cell line is measured as a screen for anti-cancer activity. Cells are grown in 96 well plates and exposed to the test compound for 48 hours. Compounds are tested at a single concentration, which is 10^-5 M for most compounds. The reported endpoint is percent growth (GI% or GIPRCNT), where numbers from 0 - 100% represent growth inhibition, and numbers from -100% - 0 represent cell death. For example, a value of 40 represents 60% growth inhibition. […]
This is part of a sample that, as a whole, favours compounds with a hit. Of some 83,000 tested, about 20% had one in any assay.
quantity: growth (%)
Give bare numbers, in %.

CC(=O)O[C@@H]1C[C@]2(C(C)C)O[C@@]1(C)[C@@H]1CCC(C)=C1[C@@H]2OC(=O)/C=C/c1ccccc1    92.8
CCOc1ccccc1Cn1ccnc1CCc1c(Cl)c(O)cc(O)c1C(=O)OC    98.4
COc1ccc(/C=C/C(=O)c2cc3c(N)c(C(=O)Nc4cccc5ccccc45)sc3nc2C)cc1    74.4
CCC(C(=O)[C@@H](C)[C@@H](O)[C@H](C)[C@@H]1O[C@@H]([C@@H](CC)C(=O)ONC(=O)c2ccccc2)CC[C@@H]1C)[C@H]1O[C@]2(C=CC(=O)[C@]3(CC[C@@](C)([C@H]4CC[C@](O)(CC)[C@H](C)O4)O3)O2)[C@H](C)C[C@@H]1C (stereo partly drawn)    16.2
CC(=O)N1N=C(c2ccc(Nc3nc(Nc4ccccc4)nc(Nc4ccccc4)n3)cc2)CC1c1ccccc1 (stereo not drawn)    89.6

Here are 3 compounds. What values of growth were reported for them?
1. CCCCCCC12CCC(=O)N1CCc1cncn12 (stereo not drawn)
2. C=C1C(=O)O[C@H]2[C@H]1CC/C(COC(=O)NCc1ccc(Cn3c(=O)sn(CCCCC)c3=O)cc1)=C\CC[C@@]1(C)O[C@@H]21
3. O=[N+]([O-])c1ccc(O)cc1Br

RESULT:
1. 113
2. 95.9
3. 101

###

Tested on: NCI-H226 lung
Test: NCI-60 one-dose screen, 48 h (100 = growth as untreated, 0 = no growth, -100 = all killed)
Conditions: 10 µM unless noted
About 83,000 compounds went through this panel and 20% of them were active in at least one assay; those are over-represented in the sample as a whole.
quantity: growth (%)
Answers are plain numbers, in %.

CCN1C(=S)N(c2ccccc2)C2C1NN=c1s/c(=C3\C(=O)N(C(C)C)c4ccccc43)c(=O)n12 (stereo not drawn)    66.7
COc1cc2oc(-c3cccc(NC(=O)c4ccccc4)c3)cc(=O)c2c(OC)c1OC    81.4
COc1c(C(=O)Nc2ccc(C)c(Br)c2)ccc2ccccc12    103

Parameter requested: growth. Apply to each item below.
1. O=C1/C(=C/c2ccccc2Br)COc2ccc(O)cc21
2. CSc1nc(N)c(NS(=O)(=O)c2ccc(C(C)=O)cc2)c(=O)[nH]1
3. Cc1ccc(Nn2c(SCC(=O)Nc3nc(-c4ccccc4)cs3)nc(C)c2C)cc1
4. O=C1NC2(Nc3ccccc31)C(=O)Nc1c(Cl)cc(Cl)cc12 (stereo not drawn)
5. Fc1cnccc1C1CC(c2ccc(N3CCNCC3)cc2)=NN1 (stereo not drawn)
6. COC1=CC(c2ccc[nH]2)=N/C1=C\c1[nH]c(C)c(CC(=O)NCc2ccccc2)c1C
7. COc1ccc(NC2=C(I)C(=O)c3ncccc3C2=O)cc1
8. O=C(Nn1c2c(sc1=NC1CC1)C(=O)c1ccccc1C2=O)c1cc2ccc1CCc1ccc(cc1)CC2

RESULT:
[100, 103, 46.3, 93.8, 82.9, 28.8, 82.2, 64.9]

Provide each entry's growth from the list below.
1. Cc1cn(-c2cc(NC(=O)c3cccc(C#Cc4cccc5[nH]nc(N)c45)c3)cc(C(F)(F)F)c2)cn1
2. COc1ccc2cc1Oc1ccc(cc1)C[C@H]1c3c(cc4c(c3Oc3cc5c(cc3OC)CCN(C)[C@@H]5C2)OCO4)CCN1C
3. COc1ccc(C(=O)C/C(=C\c2ccc(Cl)cc2)C(=O)NCc2ccccc2)cc1
4. Nc1ncnc2c1N=C(c1ccc(Br)cc1)CC(c1cccc(Nc3ccnc4cc(C(F)(F)F)ccc34)c1)N2 (stereo not drawn)
5. c1cnc2c(-c3nc4ccc5[nH]ncc5c4c4c3CCCC4)c[nH]c2c1

RESULT:
1: 22.1; 2: 87.4; 3: 73.4; 4: 67.3; 5: 42.6

Could you report growth for every entry in the following list?
1. Cc1[nH]c(=O)[nH]c(=O)c1Br
2. CC1=C2[C@@H](CC1)[C@]1(C)O[C@@](C(C)C)(C[C@H]1OC(=O)[C@H](C)O)[C@H]2OC(=O)/C=C/c1ccccc1
3. NC(=O)CSc1oc(-c2ccccc2)nc1S(=O)(=O)c1ccc(Br)cc1
4. COc1ccc(OC)c(/C=N/Nc2ncnc3c2c(C)nn3C)c1
5. Cc1ccc(C[P+](c2ccccc2)(c2ccccc2)c2ccccc2)cc1
6. O=C1Nc2ccccc2/C1=C/c1cccn1CCCCn1c2ccccc2c(=O)c2ccccc21

RESULT:
1: 108; 2: 84.2; 3: 54.7; 4: 92.6; 5: 16.1; 6: 75.2
